# systemTested: recombinant human VAP-1 (Homo sapiens, UniProt Q16853)
# Construct: purchased R&D systems
# Sequence (Q16853 1-763): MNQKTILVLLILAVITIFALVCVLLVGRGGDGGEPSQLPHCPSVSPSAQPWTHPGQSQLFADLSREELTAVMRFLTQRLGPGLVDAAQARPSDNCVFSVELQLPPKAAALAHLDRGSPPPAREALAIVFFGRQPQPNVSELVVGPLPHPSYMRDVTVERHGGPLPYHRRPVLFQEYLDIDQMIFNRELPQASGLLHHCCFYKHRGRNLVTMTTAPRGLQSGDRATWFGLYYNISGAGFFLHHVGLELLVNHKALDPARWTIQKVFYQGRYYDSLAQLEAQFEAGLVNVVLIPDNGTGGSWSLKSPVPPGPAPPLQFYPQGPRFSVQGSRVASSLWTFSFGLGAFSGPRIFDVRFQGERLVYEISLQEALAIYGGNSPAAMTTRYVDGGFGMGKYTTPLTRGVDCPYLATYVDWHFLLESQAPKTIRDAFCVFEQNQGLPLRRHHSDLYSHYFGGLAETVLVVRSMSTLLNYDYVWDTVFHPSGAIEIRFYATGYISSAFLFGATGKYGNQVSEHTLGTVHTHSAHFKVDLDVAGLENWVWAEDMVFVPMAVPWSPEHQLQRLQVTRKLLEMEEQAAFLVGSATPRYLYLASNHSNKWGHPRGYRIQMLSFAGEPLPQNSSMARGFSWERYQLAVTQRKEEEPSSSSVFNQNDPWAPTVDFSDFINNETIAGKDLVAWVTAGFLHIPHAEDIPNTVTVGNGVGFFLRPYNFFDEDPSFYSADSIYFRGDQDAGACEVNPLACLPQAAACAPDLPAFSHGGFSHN
# measurementDescription: Activity on recombinant human VAP-1, Amplex Red HRP-coupled hydrogen peroxide assay, benzylamine substrate
# Type: biochemical
# details: recombinant human VAP-1, benzylamine substrate; read-out: Inhibitory Activity (IC50, nM) human VAP-1
Where a name gives a salt, the structure may show the parent alone.
recordedEndpoint: IC50 (nM)
Answers are plain numbers, in nM.

Examples with their reported IC50 follow.
Fetch value of IC50 on recombinant human VAP-1 (Homo sapiens, UniProt Q16853) for NC/C(=C\F)Cn1ncn(-c2cccc(-c3ccc(-c4noc(=O)[nH]4)cc3)n2)c1=O [Example 182, hydrochloride] .
23

Fetch value of IC50 on recombinant human VAP-1 (Homo sapiens, UniProt Q16853) for `NC/C(=C\F)Cn1ncn(-c2cc(-c3ccc4c(c3)OCCO4)ccn2)c1=O` .
0.84

Fetch value of IC50 on recombinant human VAP-1 (Homo sapiens, UniProt Q16853) for `NC/C(=C\F)Cn1ncn(-c2ncc(-c3cccc(-c4nnn[nH]4)c3)s2)c1=O` .
0.53

Fetch value of IC50 on recombinant human VAP-1 (Homo sapiens, UniProt Q16853) for `NC/C(=C\F)Cn1ncn(-c2ncc(-c3ccc4c(c3)NCC4=O)cc2F)c1=O` .
0.56

Fetch value of IC50 on recombinant human VAP-1 (Homo sapiens, UniProt Q16853) for `NC/C(=C\F)Cn1ncn(-c2cnc(-c3ccc4sc(N)nc4c3)cn2)c1=O` .
1.3

Fetch value of IC50 on recombinant human VAP-1 (Homo sapiens, UniProt Q16853) for NC/C(=C\F)Cn1ncn(-c2cccc(-c3ccc4c(c3)NC(=O)CO4)n2)c1=O [Example 199, hydrochloride] .
4.6

Fetch value of IC50 on recombinant human VAP-1 (Homo sapiens, UniProt Q16853) for `Cc1cc(-n2cnn(C/C(=C/F)CN)c2=O)ncc1-c1ccc2cn[nH]c2c1` .
0.37

More entries:
Fetch value of IC50 on recombinant human VAP-1 (Homo sapiens, UniProt Q16853) for `NC/C(=C\F)Cn1ncn(-c2ncc(-c3ccc4c(c3)NC(=O)C4)s2)c1=O` .
1.7
